System: SW-620 colon
assayProcedure: NCI tumour cell line growth inhibition, 48 h; in the data active = GI50 below about 0.43 µM; inactive = the rest
# valid calls are active, inactive; nothing else

Some entries whose results are on file:
1) CN(C)CCCOc1ccccc1NC1=C(Cl)C(=O)C(Nc2ccccc2OCCCN(C)C)=C(Cl)C1=O	active
2) CC/C(Cc1ccccc1)=C(\c1ccc(OCCN2CCCCCC2)cc1)c1ccc(OC(=O)NCc2ccccc2)cc1	inactive
3) C=C(Cn1c(=O)c2ccccc2c2ccccc21)c1ccc(C(=O)Nc2ccccc2N)cc1	inactive
4) COc1ccc(C#Cc2ccccc2C#CCCCCO)cc1	inactive

With those in mind, consider the next compound.
-- ask Please share the test call associated with CC(=O)C1=C(O)C=C2Oc3c(C(=O)/C=C/c4cc(C(F)(F)F)cc(C(F)(F)F)c4)c(O)c(C)c(O)c3[C@]2(C)C1=O .
-- reply inactive
